Data origin: the supplement of paper PMC9170038

# System: MS2 coat protein
# protocol-notes: apparent KD of MS2 coat protein; designed switch direction (-1 OFF switch, 1 ON switch): 1; higher = weaker reporter binding
# assay-setup: input ligand: FMN 200 uM
parameter-measured: apparent KD of MS2 coat protein (nM)
Give the number; nM is assumed, so skip it.

Data request: I would be grateful if you could share the reported apparent KD of MS2 coat protein for CGAAGUCGUAGAGGAUAUGGGUGGCCGGAGUCAACAUGAGGAUCACCCAUGUGCUAAUAUGAGAUCCAGAAGGCUGCGAACGGG [Eternabot solution 16] (Eterna round: R96, puzzle: Same State NG 2) .
Data returned: 57.1

Data request: I would be grateful if you could share the reported apparent KD of MS2 coat protein for GCCGGCUGGUGAGGAUAUGGCGCCUUGUUGGUGCCAGAAGGCAUGUCUAUUGACAUGAGGAUCACCCAUGUGUUGUCGUUGGCG [salish99_SSNG1_r04_612] (Eterna round: R96, puzzle: Same State NG 1) .
Data returned: 536

Data request: I would be grateful if you could share the reported apparent KD of MS2 coat protein for AUGAUUAAUGCAGGAUAUGAUUAACAUGAGGAUCACCCAUGUGGUGUUGUGAGUAAGGAGAGUGAUCAGAAGGGCAUUUUUUUU [JMF's solution 34] (Eterna round: R96, puzzle: Same State NG 2) .
Data returned: 731

Data request: I would be grateful if you could share the reported apparent KD of MS2 coat protein for UGGUACAUGGGAGGAUAUCAUGUAGAAACAUGAGGAUCACCCAUGUAGUUGGCAGCUUUGCUGAAUGAGAAGGCCCAUGUACCU [JL SSNG1 3.59] (Eterna round: R96, puzzle: Same State NG 2) .
Data returned: 20.6

Data request: I would be grateful if you could share the reported apparent KD of MS2 coat protein for CGGCUCCGUGGAGGAUAUGGGCCUGCCCGGGAUAACGGGCCUAACACAUGAGGAUCACCCAUGUCCCAGAAGGCCGCUGGAGCC [Enineseson] (Eterna round: R96, puzzle: Same State NG 2) .
Data returned: 14
